All values here come from ChEMBL document CHEMBL3526092.

Target: CYP3A5 (Homo sapiens, UniProt P20815)
Sequence (P20815 whole entry): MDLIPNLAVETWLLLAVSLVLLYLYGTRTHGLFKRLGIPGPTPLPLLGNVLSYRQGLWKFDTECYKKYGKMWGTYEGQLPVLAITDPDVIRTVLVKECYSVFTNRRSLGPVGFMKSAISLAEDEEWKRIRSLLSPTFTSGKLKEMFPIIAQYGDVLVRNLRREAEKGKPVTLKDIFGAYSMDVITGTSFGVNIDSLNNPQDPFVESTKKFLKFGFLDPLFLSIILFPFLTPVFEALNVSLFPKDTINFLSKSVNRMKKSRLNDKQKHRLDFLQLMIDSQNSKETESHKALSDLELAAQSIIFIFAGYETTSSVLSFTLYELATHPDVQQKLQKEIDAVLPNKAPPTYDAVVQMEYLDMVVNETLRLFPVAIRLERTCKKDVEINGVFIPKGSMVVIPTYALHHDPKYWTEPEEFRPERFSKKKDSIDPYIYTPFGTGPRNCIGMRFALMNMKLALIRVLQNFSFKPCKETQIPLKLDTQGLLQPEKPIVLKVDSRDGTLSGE
Experiment: Ratio of IC50 for human CYP3A5 expressed in supersomes by coincubation study to IC50 for human CYP3A5 expressed in supersomes by preincubation study
Details: supersomes expressing human CYP3A5, read-out: Ratio IC50
MEASUREMENT LABEL: IC50 shift
# answer = number (no unit)

Task: Return IC50 shift measured with CYP3A5 (Homo sapiens, UniProt P20815) given this compound: C=CC[C@@H]1/C=C(\C)C[C@H](C)C[C@H](OC)[C@H]2O[C@@](O)(C(=O)C(=O)N3CCCC[C@H]3C(=O)O[C@H](/C(C)=C/[C@@H]3CC[C@@H](O)[C@H](OC)C3)[C@H](C)[C@@H](O)CC1=O)[C@H](C)C[C@@H]2OC [TACROLIMUS ANHYDROUS]
Result: 5

* * *

Molecular target: CYP3A (Homo sapiens, UniProt P08684+P20815+P24462+Q9HB55)
Experiment: Reversible competitive inhibition of CYP3A-mediated 1'-OH midazolam formation in human liver microsomes after 7.5 mins by nonlinear regression study
Format: ADME
Conditions: probe midazolam (1'-OH midazolam formation)
MEASUREMENT LABEL: Ki at 7.5 min (nM)
Record the value in nM, omitting the unit from your answer.

Task: // lookup Ki at 7.5 min for C=CC[C@@H]1/C=C(\C)C[C@H](C)C[C@H](OC)[C@H]2O[C@@](O)(C(=O)C(=O)N3CCCC[C@H]3C(=O)O[C@H](/C(C)=C/[C@@H]3CC[C@@H](O)[C@H](OC)C3)[C@H](C)[C@@H](O)CC1=O)[C@H](C)C[C@@H]2OC [TACROLIMUS ANHYDROUS]
Result: 610

* * *

Biological target: CYP3A5 (Homo sapiens)
Assay: Inhibition of human CYP3A5 expressed in supersomes assessed inhibition of 1'-OH midazolam formation preincubated with compound for 2.5 to 30 mins followed by addition of 20-fold diluted buffer with 20 uM MDZ by LC-MS method
Format: ADME
Conditions: supersomes expressing human CYP3A5, probe midazolam (20 uM; 1'-OH midazolam formation)
MEASUREMENT LABEL: kinact (s⁻¹)
Record the value in s⁻¹, omitting the unit from your answer.

Task: // lookup kinact for C=CC[C@@H]1/C=C(\C)C[C@H](C)C[C@H](OC)[C@H]2O[C@@](O)(C(=O)C(=O)N3CCCC[C@H]3C(=O)O[C@H](/C(C)=C/[C@@H]3CC[C@@H](O)[C@H](OC)C3)[C@H](C)[C@@H](O)CC1=O)[C@H](C)C[C@@H]2OC [TACROLIMUS ANHYDROUS]
Result: 0.0035

* * *

Target: CYP3A4 (Homo sapiens)
Sequence (P08684 whole entry): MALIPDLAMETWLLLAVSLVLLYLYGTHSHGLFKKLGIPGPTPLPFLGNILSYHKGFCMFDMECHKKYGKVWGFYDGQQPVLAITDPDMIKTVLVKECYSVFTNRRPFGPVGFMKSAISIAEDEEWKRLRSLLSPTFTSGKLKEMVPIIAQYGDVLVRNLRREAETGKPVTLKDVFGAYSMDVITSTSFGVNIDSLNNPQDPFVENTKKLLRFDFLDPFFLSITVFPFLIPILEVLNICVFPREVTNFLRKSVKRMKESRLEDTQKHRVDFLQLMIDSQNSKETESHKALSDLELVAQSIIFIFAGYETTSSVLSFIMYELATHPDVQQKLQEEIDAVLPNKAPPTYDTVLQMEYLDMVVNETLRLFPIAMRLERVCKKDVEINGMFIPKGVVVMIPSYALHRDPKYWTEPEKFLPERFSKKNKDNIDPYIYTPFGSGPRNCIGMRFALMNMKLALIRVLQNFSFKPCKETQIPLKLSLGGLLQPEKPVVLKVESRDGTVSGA
Assay: Inhibition of human CYP3A4 expressed in supersomes assessed inhibition of 1'-OH midazolam formation preincubated with compound for 2.5 to 30 mins followed by addition of 20-fold diluted buffer with 20 uM MDZ by LC-MS method
Assay type: ADME
Conditions: supersomes expressing human CYP3A4, probe midazolam (20 uM; 1'-OH midazolam formation)
MEASUREMENT LABEL: kinact
Remember to follow the number with its unit.

Task: // lookup kinact for C=CC[C@@H]1/C=C(\C)C[C@H](C)C[C@H](OC)[C@H]2O[C@@](O)(C(=O)C(=O)N3CCCC[C@H]3C(=O)O[C@H](/C(C)=C/[C@@H]3CC[C@@H](O)[C@H](OC)C3)[C@H](C)[C@@H](O)CC1=O)[C@H](C)C[C@@H]2OC [TACROLIMUS ANHYDROUS]
Result: 0.005 s⁻¹
